Task for the reader: assign each of the following compounds its reported GI50.
System: A498
Experiment: NCI tumour cell line growth inhibition, 48 h
Active and inactive are the calls of the source. No stated cut-off is given here; in the data, active = GI50 up to about 1.1 µM and inactive = higher.

See these solved cases before continuing.
SMILES_REPR: CCOc1nc(OCC)nc(-c2cccn2-c2ccccc2)n1
ASSAY_VALUE: 47.4 µM (inactive)
//
SMILES_REPR: CCCCCCCCCCCCCCCCCCCCCCC(=O)N[C@H]1CCc2cc(OC)c(OC)c(OC)c2-c2ccc(SC)c(=O)cc21
ASSAY_VALUE: 11.5 µM (inactive)
//
SMILES_REPR: Cc1ccc(S(=O)(=O)C2=C(C(C)C)N=NC2(C)C)cc1
ASSAY_VALUE: > 100 µM (inactive)
//
SMILES_REPR: N#CCCN(CCC#N)c1ccc(/C=C2\N=C(c3ccccc3)N(c3ccccc3)C2=O)cc1
ASSAY_VALUE: > 100 µM (inactive)

Qu. Requested read-out: GI50. Entry: "COc1cc2c(cc1C)NC(=O)/C2=C/c1c(Cl)n(C)c2ccccc12"
Ans. 5.86 µM (inactive)

---

Test system: SK-MEL-2
Assay: NCI tumour cell line growth inhibition, 48 h
Active and inactive are the calls of the source. Cut-off read from the data, not from the text of the source: active = GI50 up to about 1.1 µM and inactive = higher. Where a SMILES comes first, the peptide text is derived from it. The star is where a group is joined. OSu = O=C1CCC(=O)N1O*; OBn = c1ccc(CO*)cc1; Bn = c1ccc(C*)cc1
Task for the reader: assign each of the following compounds its reported GI50.

See these solved cases before continuing.
COMPOUND: Oc1ccc(Cn2c(-c3ccc(O)cc3)nc3ccccc32)cc1
GI50: > 100 µM (inactive)
//
COMPOUND: CN(C(=O)C12C3C4C1C1C2C3C41C#N)C(C)(C)C (centres undefined)
GI50: > 100 µM (inactive)
//
COMPOUND: Cc1c2c(OCC3CCCCO3)nn(C)c(=O)c2c(C)n1-c1ccccc1 (centres undefined)
GI50: 24.1 µM (inactive)
//
COMPOUND: CC(C)CC(NC(=O)C(N)CCC(=O)OCc1ccccc1)C(=O)NC(COCc1ccccc1)C(=O)NC(Cc1ccccc1)C(=O)ON1C(=O)CCC1=O (centres undefined) (H-E(OBn)LS(Bn)F-OSu; configuration not given here)
GI50: 30.8 µM (inactive)

Give measured GI50 for every item shown.
1. O=C(C1OC1c1ccc(O)cc1)C12CC3CC(CC(C3)C1)C2 (centres undefined)
2. COC(=O)[C@]12CSC[C@H]1C[C@H](c1ccc(N(C)C)cc1)N2

Ans.
["> 100 µM (inactive)", "> 100 µM (inactive)"]

---

Tested on: HCC 2998
Assay: NCI tumour cell line growth inhibition, 48 h
Active and inactive are the calls of the source. Cut-off read from the data, not from the text of the source: active = GI50 up to about 1.1 µM and inactive = higher.
MEASURE_NAME: GI50

See these solved cases before continuing.
COMPOUND: O=C1C=C/C(=N\c2ccc3c(c2)C(Br)c2ccccc2-3)O1 (stereo not given)
ASSAY_VALUE: > 100 µM (inactive)
//
COMPOUND: CCc1ccc2oc(-c3cc(O)c(-c4nc5cc(CC)ccc5o4)cc3O)nc2c1
ASSAY_VALUE: > 100 µM (inactive)
//
COMPOUND: CC(C)(C)C1CCC2c3c([nH]c4ccccc34)C3C(=O)N(c4ccccc4)C(=O)C3C2C1 (stereo not given)
ASSAY_VALUE: 9.53 µM (inactive)
//
COMPOUND: O=c1ccn(C2OC(CN(O)CCC3C(O)C(CO)OC3n3ccc(=O)[nH]c3=O)C(O)C2O)c(=O)[nH]1 (stereo not given)
ASSAY_VALUE: > 100 µM (inactive)
//
COMPOUND: Cc1cc2ccccc2n1CC(=O)NCC(C)C
ASSAY_VALUE: > 100 µM (inactive)
//
COMPOUND: CC(=N/NC(=S)N1CCCCCC1)/C(C)=N\NC(=S)N1CCCCCC1
ASSAY_VALUE: 3.12 µM (inactive)

Give measured GI50 for every item shown.
1. COc1cc2c(cc1C)NC(=O)/C2=C/c1c(Cl)n(C)c2ccccc12
2. ClCCN1CCO/C1=N/c1ccc2c(c1)CCCC2
3. OC[C@H]1O[C@@H](n2cnc3c(S)ncnc32)[C@H](O)[C@@H]1O
4. O=C1OC(c2ccccc2)=N/C1=C\c1cccnc1

Ans.
["5.18 µM (inactive)", "14.1 µM (inactive)", "> 2500 µM (inactive)", "> 100 µM (inactive)"]

---

Test system: LOX IMVI
Assay: NCI tumour cell line growth inhibition, 48 h
Calls of active or inactive are those of the source. No stated cut-off is given here; in the data, active = GI50 up to about 1.1 µM and inactive = higher.
Task for the reader: assign each of the following compounds its reported GI50.

See these solved cases before continuing.
COMPOUND: O=C1C(=Cc2cccc(Cl)c2)N=C(c2ccccc2)N1n1c(-c2ccccc2)nc2ccccc2c1=O
ASSAY_VALUE: 31.3 µM (inactive)
//
COMPOUND: FC(F)(F)c1cccc2ns[s+]c12
ASSAY_VALUE: > 100 µM (inactive)
//
COMPOUND: O=C(CN1CCOCC1)CC(O)(C(F)(F)F)C(F)(F)F
ASSAY_VALUE: 46 µM (inactive)
//
COMPOUND: Cn1ncc2c(=O)[nH]c(-c3ccccc3)nc21
ASSAY_VALUE: > 100 µM (inactive)
//
COMPOUND: N#CC1(C#N)C=CC(=C2OCC3CCCN23)C=C1 (configuration not stated)
ASSAY_VALUE: > 100 µM (inactive)

Give measured GI50 for every item shown.
1. CC1OC(OC2C(O)COC(OC3C(C)OC(OC4C(OC(=O)[C@]56CCC(C)(C)C[C@@H]5C5=CCC7[C@@]8(C)C[C@H](O)[C@H](OC9OC(CO)C(O)C(O)C9O)[C@@](C)(CO)[C@@H]8CC[C@@]7(C)[C@]5(C)CC6)OCC(O)C4O)C(O)C3OC3OCC(O)(CO)C3O)C2O)C(O)C(O)C1O (some centres not stated)
2. COc1cc(C(=O)Oc2c(C#N)sc3c2c(=O)n(-c2ccccc2)c(=S)n3-c2ccccc2)cc(OC)c1OC

Ans.
["19.8 µM (inactive)", "19.9 µM (inactive)"]

---

System: SF-295
Assay: NCI tumour cell line growth inhibition, 48 h
Activity calls are given as the source filed them. Rule as the data show it: active = GI50 up to about 1.1 µM and inactive = higher.
Outcomes you can answer with include only these: active, inactive

MOLECULE: CC[C@@H]1/C=C/C=C/C[C@H](C)[C@@H](O)[C@](C)(O)C(=O)[C@H](C)[C@@H](O)[C@H](C)C(=O)[C@H](C)[C@@H](O)[C@H](C)/C=C/C(=O)O[C@H]2[C@@H](C)[C@@H](CC1)O[C@]1(O[C@H](CC(C)O)[C@H](C)CC1=O)[C@@H]2C (some centres undefined)
CAT: active
--
MOLECULE: COc1cc2c(cc1OC)C1(c3ccc(Cl)cc3)ON=C(c3ccccc3)N1CS2 (centres undefined)
CAT: inactive

Qu. Test call, this molecule: "Cc1ccc(S(=O)(=O)C2=C(C(C)C)N=NC2(C)C)cc1"
Ans. inactive

Qu. Test call, this molecule: "Cc1cc2ccccc2n1CC(=O)NCC(C)C"
Ans. inactive

---

Task for the reader: assign each of the following compounds its reported GI50.
Test system: SK-MEL-5
Test: NCI tumour cell line growth inhibition, 48 h
The source made the active and inactive calls. Cut-off read from the data, not from the text of the source: active = GI50 up to about 1.1 µM and inactive = higher.

COMPOUND: O=C1OC(c2ccccc2)=N/C1=C\c1cccnc1
EXPERIMENTAL_SYSTEM: SK-MEL-5
ASSAY_VALUE: > 100 µM (inactive)

COMPOUND: O=C(O)CCC(N/N=N/c1ccc(-c2nc3ccccc3[nH]2)cc1)C(=O)O (centres undefined)
EXPERIMENTAL_SYSTEM: SK-MEL-5
ASSAY_VALUE: 66.5 µM (inactive)

COMPOUND: CN(C)c1ccc(/C=C/c2nc3ccccc3s2)cc1
EXPERIMENTAL_SYSTEM: SK-MEL-5
ASSAY_VALUE: > 100 µM (inactive)

COMPOUND: ON/N=C/c1cc2c(cc1Br)OCO2
EXPERIMENTAL_SYSTEM: SK-MEL-5
ASSAY_VALUE: > 386 µM (inactive)

COMPOUND: Cc1n(CC(C)C)c2c([n+]1C)C(=O)c1ccccc1C2=O
EXPERIMENTAL_SYSTEM: SK-MEL-5
ASSAY_VALUE: 0.0473 µM (active)

COMPOUND: O=C(CSc1nc2ccc(I)cc2c(=O)n1Cc1ccccc1)Nc1ccc(Br)cc1
EXPERIMENTAL_SYSTEM: SK-MEL-5
ASSAY_VALUE: 43.2 µM (inactive)

Give measured GI50 for every item shown.
1. CS(=O)(=O)O[C@H]1[C@H](O)c2ccccc2[C@@H]1N=[N+]=[N-]
2. CCOC(=O)CNC1=NNS(=O)(=O)c2ccccc21

Ans.
["> 100 µM (inactive)", "> 100 µM (inactive)"]

---

Test system: RPMI-8226
Assay: NCI tumour cell line growth inhibition, 48 h
Active and inactive are the calls of the source. Rule as the data show it: active = GI50 up to about 1.1 µM and inactive = higher. Where a SMILES comes first, the peptide text is derived from it. The star is where a group is joined. OSu = O=C1CCC(=O)N1O*; OBn = c1ccc(CO*)cc1; Bn = c1ccc(C*)cc1
MEASURE_NAME: GI50

MOLECULE: COC(=O)c1c(C(=O)OC)c2ccccn2c1-c1cc(C)cc2c1C(=O)C=CC2=O
MEASURE_NAME: GI50
ASSAY_VALUE: 4.11 µM (inactive)
//
MOLECULE: Cc1nc(-n2nc(-c3ccccc3)cc2-c2ccccc2)sc1C(=O)/C=C/c1ccccc1
MEASURE_NAME: GI50
ASSAY_VALUE: > 100 µM (inactive)
//
MOLECULE: CC(C)CC(NC(=O)C(N)CCC(=O)OCc1ccccc1)C(=O)NC(COCc1ccccc1)C(=O)NC(Cc1ccccc1)C(=O)ON1C(=O)CCC1=O (centres undefined) (H-E(OBn)LS(Bn)F-OSu; configuration not given here)
MEASURE_NAME: GI50
ASSAY_VALUE: 19.9 µM (inactive)

# input for lookup
Qu. Requested read-out: GI50. Entry: "C(=NCCN1CCOCC1)=NC1CCCCC1"
Ans. > 100 µM (inactive)
